biological target: purified human recombinant MTH1 (human MTH1, residues 42-197) (Homo sapiens, UniProt P36639); construct: human MTH1, residues 42-197, Uniprot-ID: P36639, expressed in E. coli; made in house; host or cells: E. coli; test: MTH1 enzymatic assay (luminescence-based, PPiLight); type: biochemical; conditions: Table 2
REPORTED ENDPOINT: pIC50
The scale used: pIC50 is minus the common logarithm of the concentration in molar units.

1. NC(=O)C1CCN(c2cc(NC3CC3)nc(N)n2)C1 (centres unmarked) [Example 5] : 8.15

Assign pIC50 to the following record: CNc1cc(N2CCC[C@@H]2CO)nc(N)n1 [Example 8]
8.70

Assign pIC50 to the following record: CNc1cc(N2CCC(O)C2)nc(N)n1 (centres unmarked) [Example 7]
8.89

====

Here the recorded pIC50 is given for each entry.
biological target: purified human recombinant MTH1 (human MTH1, residues 42-197) (Homo sapiens); construct: human MTH1, residues 42-197, Uniprot-ID: P36639, expressed in E. coli; made in house; host or cells: E. coli; test: MTH1 enzymatic assay (luminescence-based, PPiLight); type: biochemical; details: 6 μM 8-oxo-dGTP, Table 1, grouped
pIC50: −log10 of the molar value. Counter-ions that a name gives are not always drawn.

1. CNc1cc(N2CCCCC2Cc2ccccc2Cl)nc(N)n1 (stereo not drawn) : > 9.00
2. Nc1nc(NC2CC2)cc(N2CCC(O)C2)n1 (stereo not drawn) : 7.00 to 9.00
3. CNc1cc(N2CCCC2Cc2ccc(Cl)cc2)nc(N)n1 (stereo not drawn) : > 9.00
4. CC1Cc2ccccc2N1c1cc(NC2CC2)nc(N)n1 (stereo not drawn) : 7.00 to 9.00
5. Nc1nc(NC2CC2)cc(N2CCC(F)(F)C2)n1 : 7.00 to 9.00
6. CNc1cc(N2CC(C(=O)NCCc3ccc(S(=O)(=O)F)cc3)C2)nc(N)n1 : > 9.00
7. CNc1cc(N2CCC[C@@H]2Cc2ccccc2OC)nc(N)n1 : > 9.00
8. Nc1nc(NC2CC2)cc(N2CCC[C@H]2CO)n1 : 7.00 to 9.00

Fetch value of pIC50 on purified human recombinant MTH1 (human MTH1, residues 42-197) (Homo sapiens) for NC(=O)[C@@H]1CCN(c2nc(N)nc3c2CCCN3)C1 [Example 75, trifluoroacetate] .
< 7.00

Fetch value of pIC50 on purified human recombinant MTH1 (human MTH1, residues 42-197) (Homo sapiens) for Nc1nc(NC2CC2)cc(N2CCC(O)(C(F)(F)F)C2)n1 (stereo not drawn) .
7.00 to 9.00

Fetch value of pIC50 on purified human recombinant MTH1 (human MTH1, residues 42-197) (Homo sapiens) for CNc1cc(N2CCC(C(=O)NCCc3ccc(S(=O)(=O)F)cc3)CC2)nc(N)n1 .
> 9.00

Fetch value of pIC50 on purified human recombinant MTH1 (human MTH1, residues 42-197) (Homo sapiens) for CNc1cc(N2CCCC2C(C)C)nc(N)n1 (stereo not drawn) .
> 9.00

====

target: purified human recombinant MTH1 (human MTH1, residues 42-197) (Homo sapiens, UniProt P36639); construct: human MTH1, residues 42-197, Uniprot-ID: P36639, expressed in E. coli; made in house; host or cells: E. coli; test: MTH1 enzymatic assay (luminescence-based, PPiLight); assay type: biochemical; conditions: 6 μM 8-oxo-dGTP, Table 1, grouped
pIC50: −log10 of the molar value.
REPORTED ENDPOINT: pIC50

Here's what some known entries look like.
1) C=CC(=O)Nc1ccc(CCNC(=O)C2CN(c3cc(NC)nc(N)n3)C2)cc1 : 7.00 to 9.00
2) CC1CCN(c2cc(NC3CC3)nc(N)n2)C1C (stereo not drawn) : 7.00 to 9.00
3) CNc1cc(N2CCCCC2Cc2ccccc2OC)nc(N)n1 (stereo not drawn) [Example 100] : > 9.00
4) CNc1cc(N2CCCCC2Cc2ccccc2OC)nc(N)n1 (single isomer, unassigned) [Example 106] : > 9.00
5) Nc1nc(NC2CC2)cc(N2CCCC2C(=O)NCc2ccccc2Cl)n1 (stereo not drawn) : < 7.00
6) CCNc1cc(N2CCC(F)(F)C2)nc(N)n1 : 7.00 to 9.00
7) CNc1cc(N2CCCCC2Cc2ccc(OC)cc2)nc(N)n1 (stereo not drawn) : > 9.00
8) CNc1cc(N2C(=O)CC[C@H]2CO)nc(N)n1 : < 7.00

Please look at the following compound next.
Assign pIC50 to the following record: CNc1cc(N2CC[C@H](CO)C2)nc(N)n1
> 9.00

====

biological target: purified human recombinant MTH1 (human MTH1, residues 42-197) (Homo sapiens, UniProt P36639); construct: human MTH1, residues 42-197, Uniprot-ID: P36639, expressed in E. coli; made in house; host or cells: E. coli; assay: MTH1 enzymatic assay (luminescence-based, PPiLight); assay type: biochemical; conditions: 6 μM 8-oxo-dGTP, Table 1, grouped
pIC50: −log10 of the molar value.
REPORTED ENDPOINT: pIC50

Here's what some known entries look like.
1) CC1CC2CCCCC2N1c1cc(NC2CC2)nc(N)n1 (stereo not drawn) [Example 31] : 7.00 to 9.00
2) NC(=O)[C@H]1CCN(c2nc(N)nc3c2CCCN3)C1 [Example 78] : > 9.00

Assign pIC50 to the following record: CCCCOC(=O)CC1CCCN1c1cc(NC2CC2)nc(N)n1 (stereo not drawn) [Example 87]
7.00 to 9.00

====

target: purified human recombinant MTH1 (human MTH1, residues 42-197) (Homo sapiens); construct: human MTH1, residues 42-197, Uniprot-ID: P36639, expressed in E. coli; made in house; host or cells: E. coli; assay: MTH1 enzymatic assay (luminescence-based, PPiLight); format: biochemical; details: 6 μM 8-oxo-dGTP, Table 1, grouped
pIC50: −log10 of the molar value.
REPORTED ENDPOINT: pIC50

1) CNc1cc(N2CCCC2Cc2ccccc2C)nc(N)n1 (stereo not drawn) : > 9.00

Fetch value of pIC50 on purified human recombinant MTH1 (human MTH1, residues 42-197) (Homo sapiens) for CNc1cc(N2CC[C@@H](CO)C2)nc(N)n1 .
> 9.00

Fetch value of pIC50 on purified human recombinant MTH1 (human MTH1, residues 42-197) (Homo sapiens) for Nc1nc(NC2CC2)cc(N2CC[C@@](O)(c3ccccc3)C2)n1 (single isomer, unassigned) .
7.00 to 9.00

Fetch value of pIC50 on purified human recombinant MTH1 (human MTH1, residues 42-197) (Homo sapiens) for Nc1nc(NC2CC2)cc(N2CCCC2c2ccccc2)n1 (stereo not drawn) .
7.00 to 9.00

Fetch value of pIC50 on purified human recombinant MTH1 (human MTH1, residues 42-197) (Homo sapiens) for CC(C)Nc1cc(N2CCC(F)(F)C2)nc(N)n1 .
7.00 to 9.00

Fetch value of pIC50 on purified human recombinant MTH1 (human MTH1, residues 42-197) (Homo sapiens) for Nc1nc(NC2CC2)cc(N2CCCc3ccccc32)n1 .
> 9.00

Fetch value of pIC50 on purified human recombinant MTH1 (human MTH1, residues 42-197) (Homo sapiens) for Nc1nc2c(c(N3CC[C@H](O)C3)n1)CCCN2 .
7.00 to 9.00

Fetch value of pIC50 on purified human recombinant MTH1 (human MTH1, residues 42-197) (Homo sapiens) for C[C@H]1C(c2ccccc2)CCN1c1cc(NC2CC2)nc(N)n1 (stereo in doubt) .
7.00 to 9.00

Fetch value of pIC50 on purified human recombinant MTH1 (human MTH1, residues 42-197) (Homo sapiens) for CNc1cc(N2CCCC[C@@H]2Cc2ccc(OC)cc2)nc(N)n1 .
> 9.00

====

target: purified human recombinant MTH1 (human MTH1, residues 42-197) (Homo sapiens); construct: human MTH1, residues 42-197, Uniprot-ID: P36639, expressed in E. coli; made in house; host or cells: E. coli; experiment: MTH1 enzymatic assay (luminescence-based, PPiLight); type: biochemical; conditions: 6 μM 8-oxo-dGTP, Table 1, grouped
Here the recorded IC50 is given for each entry.

Here's what some known entries look like.
1) C[C@H]1C[C@@H](O)CN1c1cc(NC2CC2)nc(N)n1 [Example 46] : < 1 nM
2) Cc1ccc(CCNc2cc(N3CCC(F)(F)C3)nc(N)n2)cc1 [Example 145] : 1 to 100 nM
3) CCC1(O)CCN(c2cc(NC3CC3)nc(N)n2)C1 (stereo not drawn) [Example 40] : 1 to 100 nM
4) CNc1cc(N2CCC[C@H]2CO)nc(N)n1 [Example 12] : 1 to 100 nM
5) C[C@@H]1[C@H](c2ccccc2)CCN1c1cc(NC2CC2)nc(N)n1 (stereo in doubt) [Example 56] : 1 to 100 nM

Assign IC50 to the following record: NC(=O)[C@H]1CCN(c2cc(NC3CC3)nc(N)n2)C1 [Example 61]
1 to 100 nM

Assign IC50 to the following record: Nc1nc(NC2CC2)cc(N2CC[C@H](CO)C2)n1 [Example 67]
1 to 100 nM

Assign IC50 to the following record: CNc1cc(N2CCC(F)(F)C2)nc(N)n1 [Example 3]
< 1 nM

Assign IC50 to the following record: CNc1cc(N2CC[C@@H](O)C2)nc(N)n1 [Example 60]
1 to 100 nM

Assign IC50 to the following record: Nc1nc(NC2CC2)cc(N2CCC[C@H]2Cc2ccccc2Cl)n1 [Example 48]
1 to 100 nM

Assign IC50 to the following record: Nc1nc(NC2CC2)cc(N2CCCC2C(=O)NCCc2ccc(S(=O)(=O)F)cc2)n1 (stereo not drawn) [Example 119]
1 to 100 nM

Assign IC50 to the following record: CNc1cc(N2CCCC2C(C)(C)c2ccccc2)nc(N)n1 (stereo not drawn) [Example 83]
< 1 nM

Assign IC50 to the following record: Nc1nc(NC2CC2)cc(N2CCCC2Cc2ccccc2Cl)n1 (stereo not drawn) [Example 36]
< 1 nM

Assign IC50 to the following record: CC1(O)CCN(c2cc(NC3CC3)nc(N)n2)C1 (stereo not drawn) [Example 43]
1 to 100 nM

Assign IC50 to the following record: CNc1cc(N2CCCC2Cc2ccccc2OC)nc(N)n1 (stereo not drawn) [Example 82]
< 1 nM
